targetOrTestSystem: KRAS G12V (Homo sapiens, UniProt P01116, G12V)
Sequence (P01116 1-188 isoform P01116-2 G12V): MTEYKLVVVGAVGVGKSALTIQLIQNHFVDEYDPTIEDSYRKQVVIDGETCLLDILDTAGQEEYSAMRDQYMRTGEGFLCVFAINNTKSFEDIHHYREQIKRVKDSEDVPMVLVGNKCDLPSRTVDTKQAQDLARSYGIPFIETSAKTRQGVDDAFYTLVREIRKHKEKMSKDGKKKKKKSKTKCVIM
runDescription: GDP-GTP exchange assay (bodipy-GDP/GppNHp, SOS1), KRAS G12V
runConditions: 2.5 nM bodipy-loaded KRAS G12V, 3 h incubation after adding GppNHp-SOS1; for certain compounds the most potent isomer is quoted; read-out: KRAS_G12V exchange assay IC50
pIC50: −log10 of the molar value.
quantity: pIC50

Each molecule below has a reported value. Please supply its pIC50.
1. Cc1nc2c(F)c(-c3cccc(Cl)c3Cl)c(CCC#N)cc2c2c1cc([C@H]1[C@H]3C[C@H](C[C@H]3C)N1C(=O)C1CC1)n2C1[C@H]2CN[C@@H]1C2 (some centres unmarked)
2. [2H]C([2H])([2H])O[C@H]1C[C@H]2C[C@@H]1[C@H](c1cc3c(C)nc4c(F)c(-c5cccc(Cl)c5Cl)c(CCC#N)cc4c3n1C1[C@H]3CN[C@@H]1C3)N2C(=O)C1CC1 (some centres unmarked)

Return:
≥ 7.00
≥ 7.00

* * *

targetOrTestSystem: KRAS G12D (Homo sapiens, UniProt P01116, G12D)
Sequence (P01116 1-188 isoform P01116-2 G12D): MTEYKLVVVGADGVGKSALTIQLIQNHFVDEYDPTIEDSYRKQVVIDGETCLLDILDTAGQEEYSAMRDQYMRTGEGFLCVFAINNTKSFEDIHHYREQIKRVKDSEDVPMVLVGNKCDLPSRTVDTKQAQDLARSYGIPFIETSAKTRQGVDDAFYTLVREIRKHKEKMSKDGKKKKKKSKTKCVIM
runDescription: GDP-GTP exchange assay (bodipy-GDP/GppNHp, SOS1), KRAS G12D
runConditions: 2.5 nM bodipy-loaded KRAS G12D, 4 h pre-incubation, 2 h reaction with GppNHp and SOS1; for certain compounds the most potent isomer is quoted; read-out: KRAS_G12D exchange assay IC50
Would you kindly list IC50 for each of these compounds?

Each compound below has a reported value. Please supply its IC50.
1. Cc1nc2c(F)c(-c3cccc(Cl)c3Cl)c(CCC#N)cc2c2c1cc([C@H]1[C@H]3C[C@H](C[C@@H]3F)N1C(=O)C1CC1)n2C1[C@H]2CN[C@@H]1C2 (stereo partly drawn) [Example 20]
2. [2H]C([2H])([2H])O[C@H]1C[C@H]2C[C@@H]1[C@H](c1cc3c(C)nc4c(F)c(-c5cccc(Cl)c5Cl)c(CCC#N)cc4c3n1C1[C@H]3CN[C@@H]1C3)N2C(=O)C1CC1 (stereo partly drawn) [Example 23]
3. CO[C@@H]1C[C@H]2C[C@@H]1[C@H](c1cc3c(C)nc4c(F)c(-c5cccc(Cl)c5Cl)c(CCC#N)cc4c3n1C1[C@H]3CN[C@@H]1C3)N2C(=O)C1CC1 (stereo partly drawn) [Example 22]

Return:
1: ≤ 100 nM; 2: ≤ 100 nM; 3: 100 to 1000 nM

* * *

Would you kindly list IC50 for each of these molecules?
targetOrTestSystem: KRAS G12D (Homo sapiens, UniProt P01116, G12D)
runDescription: GDP-GTP exchange assay (bodipy-GDP/GppNHp, SOS1), KRAS G12D
runConditions: 2.5 nM bodipy-loaded KRAS G12D, 4 h pre-incubation, 2 h reaction with GppNHp and SOS1; for certain compounds the most potent isomer is quoted; read-out: KRAS_G12D exchange assay IC50

Some molecules with known IC50 results, for comparison:
Cc1nc2c(F)c(-c3cccc(Cl)c3Cl)c(CCC#N)cc2c2c1cc([C@H]1[C@@H]3C[C@@H]([C@@H]4C[C@@H]43)N1C(=O)C1CC1)n2C1C2CNC1C2 (stereo partly shown) [Example 26]
5 to 10 µM
Cc1nc2c(F)c(-c3cccc(Cl)c3Cl)c(CCC#N)cc2c2c1cc([C@H]1[C@H]3C[C@H](C[C@@H]3C(F)F)N1C(=O)C1(F)CC1)n2[C@H]1[C@H]2CN[C@@H]1C2 (atropisomer, axis not shown; (Ra)) [Example 44]
≤ 0.1 µM

Each molecule below has a reported value. Please supply its IC50.
1. Cc1nc2c(F)c(-c3cccc(Cl)c3Cl)c(CCC#N)cc2c2c1cc([C@H]1[C@H]3C[C@H](C[C@@H]3F)N1C(=O)C1CC1)n2[C@H]1[C@H]2CN[C@@H]1C2 (atropisomer, axis not shown; (Ra)) [Example 2]
2. Cc1nc2c(F)c(-c3cccc(Cl)c3Cl)c(CCC#N)cc2c2c1cc([C@H]1[C@H]3C[C@H](C[C@@H]3OCc3ccccc3)N1C(=O)C1CC1)n2[C@H]1[C@H]2CN[C@@H]1C2 (atropisomer, axis not shown; (Ra)) [Example 6]

Return:
1. ≤ 0.1 µM
2. ≤ 0.1 µM
